B1: EHEE_rd4_0726 (parent)
chain: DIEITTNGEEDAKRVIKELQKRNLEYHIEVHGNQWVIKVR

Variants of: B1
methodSummary: folding stability dG (cDNA display proteolysis); higher = more stable
measurementContext: PBS, room temperature
Kindly supply the reported folding stability dG values for the records listed here.
Reply with a number, then the unit it belongs to.

>>> print(df.to_string())
   mutantid   readoutvalue
0      N33C  1.96 kcal/mol

Okay, here is my list. What is folding stability dG for each of these?
1. E18H
2. V39L

2.02 kcal/mol
1.98 kcal/mol
